# maps each entry to its composite z-score
protocolNotes: probe aShh binding to arrayed compounds – biochemical, biotinylated probe, 635/667 nm fluorescence, primary screen (AID 1114);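 note: probe is biotin-labelled aShh protein from a stem cell growth factor screen; measures binding of labelled protein to compounds printed on the slide; score merges feature fluorescence at 667 nm with signal-to-noise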
cond: small-molecule microarray, higher = more signal
measurementType: composite z-score

CC(C)(C)OC(=O)CC[C@@]1(C(=O)N2CCCCC2)N=C(c2ccc(OCCCO)cc2)O[C@@H]1c1ccccc1CN=[N+]=[N-]: 0.199
CN(C)CCCNC(=O)[C@@]1(Cc2ccccc2I)c2ccccc2C(=O)N(Cc2ccccc2Cl)[C@H]1c1ccc(CO)cc1: -0.12
COc1ccc([Si](C)(C)[C@@H]2[C@@H](CC(=O)N(CCO)Cc3ccccc3)O[C@]3(C(=O)N(C)c4c(Br)cc(C)cc43)[C@H]2C)cc1: -0.399
CC(C)C(CO)N1C(=O)[C@@H]2[C@H]3C(=O)OCC=C[C@H]3OC23C=CCN(Cn2nnc4ccccc42)C(=O)[C@@H]13 (stereo partly specified): 0.35
OCCCC1=CC(c2cccs2)N(Cc2cccc(OC(F)(F)F)c2)CC1 (stereo unspecified): -0.221
O=C1c2ccccc2[C@](Cc2ccccc2I)(C(=O)NC2CC2)[C@H](c2ccc(CO)cc2)N1Cc1ccccc1Cl: 0.755

---

protocolNotes: probe aNog binding to arrayed compounds – biochemical, biotinylated probe, 635/667 nm fluorescence, primary screen (AID 1115);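 note: probe is biotinylated aNog protein used at 0.15 µg/mL for 1 h at 4 C; z-score combines 667 nm fluorescence of each spot with its signal to noise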
cond: small-molecule microarray, higher = more signal
Assign 1.0 whenever composite z-score does not fall below 0.3; assign 0.0 whenever it does.

CC(C)C[C@@H]1NC(=O)[C@@H]2C[C@H](C(=O)NCc3ccc(F)cc3)[C@H](c3ccc(O)cc3)N2C1=O: 0.0
[N-]=[N+]=NCc1ccccc1[C@H]1OC(c2ccc(OCCCO)cc2)=N[C@@]1(Cc1ccccc1N=[N+]=[N-])C(=O)N1CCCCC1: 1.0
NC(=O)[C@@H]1[C@H]2C(=O)O[C@H](c3ccccc3)[C@H](c3ccccc3)N2[C@H](c2ccccc2OCCO)[C@@]12C(=O)Nc1ccc(C#CCCO)cc12: 0.0
COC(=O)c1ccc(OC)c(/C=C\CC(CCc2ccccc2)OC(=O)c2ccncc2)c1 (stereo not given): 0.0
CN(C)CCCN1C(=O)[C@@]2(Cc3ccccc31)c1ccccc1C(=O)N(Cc1ccccc1)[C@H]2c1ccc(CO)cc1: 0.0
COC(=O)[C@@]1(Cc2ccc(OC)cc2)[C@H]2c3cc(C(=O)N4CCCC4)n(CCF)c3C[C@H]2CN1C(=O)c1ccccc1: 1.0
COC(=O)[C@@]1(Cc2ccccc2)[C@H]2c3cc(C(=O)N4CCCC4)n(Cc4ccc(OC(F)(F)F)cc4)c3C[C@H]2CN1C(=O)c1ccccc1: 1.0
CCCCCCCCCCC(O)C1C=CC2C(=O)NC(=O)C2N1Nc1ccccn1 (stereo not given): 1.0
COc1ccc([Si](C)(C)[C@H]2[C@H](CCO)O[C@@]3(C(=O)N(Cc4cccc(N5CCOC5=O)c4)c4ccccc43)[C@@H]2C)cc1: 0.0
CCCN1C(=O)[C@@]2(Cc3ccccc3)N=C(c3ccc(OCCCO)cc3)O[C@H]2c2ccccc21: 0.0
COC(=O)[C@]1(Cc2ccccc2N=[N+]=[N-])N=C(c2ccc(OCCCO)cc2)O[C@@H]1c1ccccc1: 1.0
O=C1NC(=O)C2C1C=CC(C(O)c1ccc3c(c1)OCO3)N2Nc1ccc(Cl)cc1Cl (stereo not given): 0.0
Cc1cc(C)c(C(O)C2C=CC3C(=O)N(c4ccccc4)C(=O)C3N2Nc2ccccc2)c(C)c1 (stereo not given): 1.0
COCCCNC(=O)[C@@]1(Cc2ccccc2)COC(c2ccc(OCCCO)cc2)=N1: 0.0
COCCOC(=O)N1C(=O)[C@@]2(c3cc(C#CC4(O)CCCCCC4)ccc31)[C@H](C(=O)NC[C@H](O)c1ccccc1)[C@H]1C(=O)O[C@H](c3ccccc3)[C@H](c3ccccc3)N1[C@@H]2c1ccc(OCCO)cc1: 0.0
